B1: HDV Ribozyme (parent)
chain: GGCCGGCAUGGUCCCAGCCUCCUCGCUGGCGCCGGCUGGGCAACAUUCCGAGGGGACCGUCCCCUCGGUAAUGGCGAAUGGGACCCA

Variants of: B1
Experiment: self-cleavage, relative activity (ratio to wild type); higher = more cleavage; co-transcriptional
quantity.name: self-cleavage
I'd appreciate a reply containing only the number, no unit.

Prompt line: Query: self-cleavage; subject: C48G C86G
Response line: 1.11

Prompt line: Query: self-cleavage; subject: C32G G40U
Response line: 0.0791

Prompt line: Query: self-cleavage; subject: C4A A87C
Response line: 0.21

Prompt line: Query: self-cleavage; subject: C62G C84U
Response line: 0.846

Prompt line: Query: self-cleavage; subject: C3G A51C
Response line: 0.779

Prompt line: Query: self-cleavage; subject: C24G A42C
Response line: 0.101

Prompt line: Query: self-cleavage; subject: G2U G59C
Response line: 0.0323

Prompt line: Query: self-cleavage; subject: G38C A42G
Response line: 0.0449

Prompt line: Query: self-cleavage; subject: C30G C86A
Response line: 0.241

Prompt line: Query: self-cleavage; subject: C4A U46G
Response line: 0.0615

Prompt line: Query: self-cleavage; subject: C13A C63A
Response line: 0.155

Prompt line: Query: self-cleavage; subject: G34C U65A
Response line: 0.138

Prompt line: Query: self-cleavage; subject: C3U G73A
Response line: 0.366

Prompt line: Query: self-cleavage; subject: G34A
Response line: 0.189

Prompt line: Query: self-cleavage; subject: A43U A45U
Response line: 0.594

Prompt line: Query: self-cleavage; subject: A8G C61A
Response line: 0.886

Prompt line: Query: self-cleavage; subject: C15G G76U
Response line: 0.831

Prompt line: Query: self-cleavage; subject: C22G G82C
Response line: 0.0378

Prompt line: Query: self-cleavage; subject: U9G G38A
Response line: 0.156

Prompt line: Query: self-cleavage; subject: G10U U72A
Response line: 0.277

Prompt line: Query: self-cleavage; subject: C24G C41G
Response line: 0

Prompt line: Query: self-cleavage; subject: G29A C33U
Response line: 0.111

Prompt line: Query: self-cleavage; subject: U27A C62A
Response line: 0.872

Prompt line: Query: self-cleavage; subject: A56C U60C
Response line: 0.98

Prompt line: Query: self-cleavage; subject: G1C A87G
Response line: 0.0712

Prompt line: Query: self-cleavage; subject: A16U C22U
Response line: 0.612

Prompt line: Query: self-cleavage; subject: G34U U65A
Response line: 0.0923

Prompt line: Query: self-cleavage; subject: C13G U60G
Response line: 0

Prompt line: Query: self-cleavage; subject: G68A A87C
Response line: 0.918

Prompt line: Query: self-cleavage; subject: G54U C64U
Response line: 0.905

Prompt line: Query: self-cleavage; subject: C7A A77C
Response line: 0.115

Prompt line: Query: self-cleavage; subject: C15G G28U
Response line: 0.0437

Prompt line: Query: self-cleavage; subject: U12C U23A
Response line: 0.0594

Prompt line: Query: self-cleavage; subject: G38A A83C
Response line: 0.151

Prompt line: Query: self-cleavage; subject: C30A A43U
Response line: 0.0692

Prompt line: Query: self-cleavage; subject: G52C C61U
Response line: 0.963

Prompt line: Query: self-cleavage; subject: G31A C75G
Response line: 0.086

Prompt line: Query: self-cleavage; subject: C7U G59U
Response line: 0.812

Prompt line: Query: self-cleavage; subject: C24A U47C
Response line: 0.508

Prompt line: Query: self-cleavage; subject: G11C A70C
Response line: 0.32

Prompt line: Query: self-cleavage; subject: G17U C57A
Response line: 0.689

Prompt line: Query: self-cleavage; subject: G39A U60G
Response line: 0.404

Prompt line: Query: self-cleavage; subject: G39U C63G
Response line: 0.507

Prompt line: Query: self-cleavage; subject: G17C G67U
Response line: 0.358

Prompt line: Query: self-cleavage; subject: G50U
Response line: 0.989

Prompt line: Query: self-cleavage; subject: G35A C41A
Response line: 0.562

// data source = the RNAGym collection of RNA variant scans (doi:10.7554/elife.80360)
